B1: KCNA3 (parent)
chain: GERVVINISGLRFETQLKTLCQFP

- Variants of: B1
- procedure_summary: protein stability index of a GFP-peptide fusion (GPS, HEK-293T) (PSI 1-6); higher = more stable;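 also: lentivirally expressed fusions sorted by FACS into six bins by GFP to DsRed ratio, PSI derived from sequencing read proportions per bin multiplied by bin number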
- test_parameters: c terminus: a fixed tail appended
measured_endpoint: protein stability index

# example entries with known answers
>  <sequence_record>
GERVVINISGLRFETQLKTLCDFP [Q22D]

>  <protein stability index>
3.65

$$$$
>  <sequence_record>
GERVVINISGLRFETQLSTLCQFP [K18S]

>  <protein stability index>
1.78

$$$$
>  <sequence_record>
GERGVINISGLRFETQLKTLCQFP [V4G]

>  <protein stability index>
1.66

$$$$
>  <sequence_record>
GERVVINISGLRFETQLKPLCQFP [T19P]

>  <protein stability index>
1.49

$$$$
>  <sequence_record>
GERVVINISGFRFETQLKTLCQFP [L11F]

>  <protein stability index>
1.61

$$$$
>  <sequence_record>
GERVVINISPLRFETQLKTLCQFP [G10P]

>  <protein stability index>
4.02

$$$$

Query: Could you tell me which protein stability index is on file for GERTVINISGLRFETQLKTLCQFP [V4T] ?
Response: 2.27

Query: Could you tell me which protein stability index is on file for GERVVIEISGLRFETQLKTLCQFP [N7E] ?
Response: 2.1

Query: Could you tell me which protein stability index is on file for GERVVHNISGLRFETQLKTLCQFP [I6H] ?
Response: 1.78

Query: Could you tell me which protein stability index is on file for GEKVVINISGLRFETQLKTLCQFP [R3K] ?
Response: 2.73

Query: Could you tell me which protein stability index is on file for GERVVINISGLRFETQLKTLCNFP [Q22N] ?
Response: 2.1
